Where a name gives a salt, the structure may show the parent alone.
// each record: one item and its IC50 for VEGFR2 (Homo sapiens, UniProt P35968)
Give a bare numeral; the unit nM is implied.

[in] Name the recorded IC50 for [2H]C([2H])([2H])OC([2H])([2H])CNCc1ccc(-c2cc3nccc(Oc4ccc(NC(=O)C5(C(=O)Nc6ccc(F)cc6)CC5)cc4F)c3s2)nc1 [Hydrochloride of 002] .
[out] 2.75

[in] For [2H]C([2H])([2H])OCCNCc1ccc(-c2cc3nccc(Oc4ccc(NC(=O)C5(C(=O)Nc6ccc(F)cc6)CC5)cc4F)c3s2)nc1 [Trifluoroacetate of 001] then?
[out] 2.16
